assay.protocol: Cytotoxicity against CHOK1 cells
Type: cell-based, Cricetulus griseus
cond: chinese hamster, CHO-K1 cells; read-out: ED50 (the source's name)
readout.name: CC50 (µg/mL)
Provide only the numeric value, understood in µg/mL.

Please fill in: CC50 reported for C=C1C(=O)O[C@H]2[C@H](O)[C@@H](C)CCC/C(C)=C/CC[C@@]3(C)O[C@H]3C[C@@H]12 [EUPALMERIN] = 5.46
